# PROCEDURE_SUMMARY: physchem
# CONDITION_CONTEXT: pH 5, aqueous buffer, kinetic from dmso stock
Measured solubility of individual entries
PROPERTY: solubility (µg/mL)

Cc1ccc(NC(=O)C(C)Sc2nc3ccccc3n2-c2cccc(CCN3CCOCC3)c2)c(Cl)c1 (stereo not shown) [Compound 14b]	33
Cc1ccc(NC(=O)C(C)Sc2nc3ccccc3n2-c2ccccc2CN2CCN(C)CC2)c(Cl)c1 (stereo not shown) [Compound 14a]	92
Cc1ccc(NC(=O)C(C)Sc2nc3ccccc3n2-c2ccc(CCN3CCOCC3)cc2)c(Cl)c1 (stereo not shown) [Compound 14c]	51

---

# solubility listing for each entry below
# PROCEDURE_SUMMARY: physchem
# CONDITION_CONTEXT: pH 7.4, aqueous buffer, kinetic from dmso stock
PROPERTY: solubility

Cc1ccc(NC(=O)C(C)Sc2nc3ccccc3n2-c2ccc(CCN3CCOCC3)cc2)c(Cl)c1 (stereo not shown) [Compound 14c]	25 µg/mL
Cc1ccc(NC(=O)C(C)Sc2nc3ccccc3n2-c2ccccc2CN2CCN(C)CC2)c(Cl)c1 (stereo not shown) [Compound 14a]	20 µg/mL
Cc1ccc(NC(=O)C(C)Sc2nc3ccccc3n2CCN2CCNCC2)c(Cl)c1 (stereo not shown) [Compound 18e]	120 µg/mL
COc1ccc(-n2c(SC(C)C(=O)Nc3ccc(C)cc3Cl)nc3ccccc32)cc1 (stereo not shown)	< 15 µg/mL

---

# PROCEDURE_SUMMARY: physchem
PROPERTY: solubility

COc1ccc(-n2c(SC(C)C(=O)Nc3ccc(C)cc3Cl)nc3ccccc32)cc1 (stereo not shown)	< 15 µg/mL

---

Measured solubility values are reported for all entries that follow.
# PROCEDURE_SUMMARY: physchem
# CONDITION_CONTEXT: pH 3, aqueous buffer, kinetic from dmso stock
PROPERTY: solubility (µg/mL)

Cc1ccc(NC(=O)C(C)Sc2nc3ccccc3n2-c2cccc(CCN3CCOCC3)c2)c(Cl)c1 (stereo not shown) [Compound 14b]	158
Cc1ccc(NC(=O)C(C)Sc2nc3ccccc3n2-c2ccc(CCN3CCOCC3)cc2)c(Cl)c1 (stereo not shown) [Compound 14c]	212

---

# PROCEDURE_SUMMARY: physchem
# CONDITION_CONTEXT: pH 7.4, aqueous buffer, kinetic from dmso stock
Reported solubility values for the following compounds.
PROPERTY: solubility

Cc1ccc(NC(=O)C(C)Sc2nc3ccccc3n2-c2cccc(CCn3ncnn3)c2)c(Cl)c1 (stereo not drawn) [Compound 18g]	< 15 µg/mL
Cc1ccc(NC(=O)C(C)Sc2nc3ccccc3n2-c2cccc(CN3CCOCC3)c2)c(Cl)c1 (stereo not drawn) [Compound 18f]	< 15 µg/mL
Cc1ccc(NC(=O)C(C)Sc2nc3ccccc3n2N2CCN(C)CC2)c(Cl)c1 (stereo not drawn) [Compound 18c]	< 15 µg/mL
